- Test system: biotinyl-Leu-oxazolone
- METHOD_DESCRIPTION: self-aminoacylation, catalytic enhancement (BLO) (fold over background); higher = more active; k-Seq, kA / k0A0; sequences stand for … in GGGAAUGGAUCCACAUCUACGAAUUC…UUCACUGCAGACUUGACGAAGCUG
Fewer inactive variants are shown than the library holds.
OBSERVABLE: self-aminoacylation
Answers are plain numbers.

For orientation, consider the following solved cases.
AUUCACCAAGGUCAUCGAGUG [Fam2.2 aminoacylation ribozyme variant] : 4.52
AAGUUUGCGAAUAGUCACAAG [Fam3.1 aminoacylation ribozyme variant] : 0.774
CUACACUUCAAACAAUCGGUC [Fam1B.1 aminoacylation ribozyme variant] : 2.08
AUUACCCUGGUCAUCGAGUCU [Fam2.1 aminoacylation ribozyme variant] : 0.712
CCCAACUUCAAGCAAUCGGUC [Fam1B.1 aminoacylation ribozyme variant] : 2.34
AUUACUCUGGACAUCGAGUGA [Fam2.1 aminoacylation ribozyme variant] : 6.1

Could I get self-aminoacylation for every one of these entries?
1. AAGUUGGCUAAUUGUCGCAAG [Fam3.1 aminoacylation ribozyme variant]
2. GUUCACCUACGUCAUCGGGUG [Fam2.2 aminoacylation ribozyme variant]
3. CUACUUCAAACGAUCGAUCUG [Fam1A.1 aminoacylation ribozyme variant]
4. AUUACCAAGGUCAUCGAGUGA [Fam2.1 aminoacylation ribozyme variant]

Marked response:
1. 2.41
2. 5.15
3. 0.485
4. 8.44

Could I get self-aminoacylation for every one of these entries?
1. AUUCUCCUAGGUCAUCAGGUG [Fam2.2 aminoacylation ribozyme variant]
2. AUGUUUGCUAAUAGCCGCAAG [Fam3.1 aminoacylation ribozyme variant]
3. CUACUUCGAAGAAUCGGUCUG [Fam1A.1 aminoacylation ribozyme variant]

Marked response:
2.71
1.14
0.757

Could I get self-aminoacylation for every one of these entries?
1. AUUCACCUAGGUCAGCGGCUG [Fam2.2 aminoacylation ribozyme variant]
2. AAGUUUGCUAAUAUUCGCAUG [Fam3.1 aminoacylation ribozyme variant]

Marked response:
1: 3.16; 2: 1.08

* * *

- Test system: biotinyl-Ile-oxazolone
- METHOD_DESCRIPTION: self-aminoacylation, catalytic enhancement (BIO) (fold over background); higher = more active; k-Seq, kA / k0A0; sequences stand for … in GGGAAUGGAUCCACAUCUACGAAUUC…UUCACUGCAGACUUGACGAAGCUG
This sample holds only a part of the variants without activity.
OBSERVABLE: self-aminoacylation
One number for each entry.

AUGACCCUGGUAAUCGAGUGA [Fam2.1 aminoacylation ribozyme variant] : 2.7

Could I get self-aminoacylation for every one of these entries?
1. CCACACUUCGAGCAAUCGGCC [Fam1B.1 aminoacylation ribozyme variant]
2. CCACAAUUCAAGCAAUCGUUC [Fam1B.1 aminoacylation ribozyme variant]
3. CCACAGUUCAAGCAAUCGUUC [Fam1B.1 aminoacylation ribozyme variant]
4. CCACACUUAAAGCAAUCUGUC [Fam1B.1 aminoacylation ribozyme variant]
5. AUUCCCCUUGGUCAUCGGGUG [Fam2.2 aminoacylation ribozyme variant]
6. AAGUUUGCUAAUAGUCCCGAG [Fam3.1 aminoacylation ribozyme variant]

Marked response:
[1.64, 0.909, 0.771, 0.463, 13.4, 1.22]

Exam item: Item under review: AUCACACUGGUCAUCGAGUGA [Fam2.1 aminoacylation ribozyme variant] . Reported self-aminoacylation?
Marked response: 4.41
